method-notes: Solubility
Assay type: physicochemical
test-parameters: aqueous media, aqueous buffer; across the physiological pH range; read-out: Aqueous solubility
observable: solubility

[in] Returns the measured solubility for the input compound. Input: Cn1c(=O)n([C@@H]2CCC(=O)NC2=O)c2cccc(C#CCOC3CCN(C[C@H]4CC[C@H](n5cc(NC(=O)c6cnn7ccc(N8C[C@H]9C[C@@H]8CO9)nc67)c(C(F)F)n5)CC4)CC3)c21
[out] ≤ 3000 µg/mL

###

method-notes: Phase 1 MAD plasma pharmacokinetics
Format: in vivo, human
test-parameters: human, plasma, oral; steady-state (Day 14), 50 mg QD; geometric mean (% CV); read-out: Ctrough
observable: concentration at 24 h (ng/mL)
Lab book: enter the figure in ng/mL, no units written.

[in] Returns the measured concentration at 24 h for the input compound. Input: Cn1c(=O)n([C@@H]2CCC(=O)NC2=O)c2cccc(C#CCOC3CCN(C[C@H]4CC[C@H](n5cc(NC(=O)c6cnn7ccc(N8C[C@H]9C[C@@H]8CO9)nc67)c(C(F)F)n5)CC4)CC3)c21
[out] 7.28
